Measurement Description: Solubility in water of salts (and free bases)
Assay type: physicochemical
Setup Conditions: Table 2, salts of compounds I; temp. by No. [°C]: 1 25.5; 2 23.0; 3 22.4; 4 22.4; 5 22.0; 6 25.0; 7 25.5; 8 25.5; 9 25.5; 10 23.5; 11 23.5; 12 25.0; 13 24.0; 14 23.0; 15 22.0; 16 24.5; 17 22.5; 18 22.0
Structures can show the parent of a compound that is named as a salt.
Property Name: 1 part by mass dissolves in ... parts by H2O (parts by H2 O)

CN(C(=O)c1cnc(N2CC(C)(C)NC2=O)nc1N)c1cc(C(F)(F)F)ccc1F [Example 28] = 72.7
CCCCCN(C(=O)c1cnc(N2CC(C)(C)NC2=O)nc1N)c1cccc(C(F)(F)F)c1 [Example 47, hydrochloride] = 51.3

1: CC(C)(C)CN(C(=O)c1cnc(N2CC(C)(C)NC2=O)nc1N)c1cccc(C(F)(F)F)c1 [Example 37]
2: CCN(C(=O)c1cnc(N2CC(C)(C)NC2=O)nc1N)c1cccc(C(F)(F)F)c1 [Example 1]
Task: Could you check which of 1 and 2 has a smaller value for 1 part by mass dissolves in ... parts by H2O? Give the chosen item's label as your response.
Result: 2
(2: 13.5 parts by H2 O, 1: 53.3 parts by H2 O)

----------
Measurement Description: Solubility in water of salts (and free bases)
Type: physicochemical
Setup Conditions: water; Table 1, N-H analogs; temp. by No. [°C]: 1 25.0; 2 23.0; 3 26.2; 4 25.1; 5 25.2; 6 24.1; 7 24.5; 8 24.2; 9 24.2; 10 25.7; 11 25.8; read-out: Solubility in water, Molarity × 10^-3
Property Name: solubility (mM)

CC1(C)CN(c2ncc(C(=O)Nc3cc(C(F)(F)F)ccc3Cl)c(N)n2)C(=O)N1 [No. 4 (Table 1), reference compound] = 9.91

I: CC1(C)CN(c2ncc(C(=O)Nc3cccc(C(F)(F)F)c3)c(N)n2)C(=O)N1 [No. 1 (Table 1), reference compound]
II: CC1NC(=O)N(c2ncc(C(=O)Nc3cccc(C(F)(F)F)c3)c(N)n2)C1C (stereo not shown) [No. 11 (Table 1), reference compound]
III: COc1ccc(C(F)(F)F)cc1NC(=O)c1cnc(N2CC(C)(C)NC2=O)nc1N [No. 6 (Table 1), reference compound]
Task: Exam item: list the entries in increasing order of solubility. Write out the labels following the order that was asked for.
Result: I, II, III

----------
Measurement Description: Solubility in water of salts (and free bases)
Type: physicochemical
Setup Conditions: water, temperature not stated; read-out: soluble in a concentration in water
Property Name: solubility (mg/mL)
Write the answer as a number in mg/mL, unit excluded.

Task: Could you tell me which solubility is on file for CCN(C(=O)c1cnc(N2CC(C)(C)NC2=O)nc1N)c1cc(C(F)(F)F)ccc1F [Example 60, nitrate] ?
Result: 17

----------
Measurement Description: Solubility in water of salts (and free bases)
Type: physicochemical
Setup Conditions: Table 2, salts of compounds I; temp. by No. [°C]: 1 25.5; 2 23.0; 3 22.4; 4 22.4; 5 22.0; 6 25.0; 7 25.5; 8 25.5; 9 25.5; 10 23.5; 11 23.5; 12 25.0; 13 24.0; 14 23.0; 15 22.0; 16 24.5; 17 22.5; 18 22.0
Structures can show the parent of a compound that is named as a salt.
Property Name: 1 part by mass dissolves in ... parts by H2O (parts by H2 O)

CCCN(C(=O)c1cnc(N2CC(C)(C)NC2=O)nc1N)c1cccc(C(F)(F)F)c1 [Example 33] = 22.8
CC1(C)CN(c2ncc(C(=O)N(c3cccc(C(F)(F)F)c3)C3CCCC3)c(N)n2)C(=O)N1 [No. 8 (Table 2)] = 60.6

A: CC(C)N(C(=O)c1cnc(N2CC(C)(C)NC2=O)nc1N)c1cccc(C(F)(F)F)c1 [Example 3]
B: CC1(C)CN(c2ncc(C(=O)N(CC3CC3)c3cc(C(F)(F)F)ccc3F)c(N)n2)C(=O)N1 [Example 61]
C: C=CCN(C(=O)c1cnc(N2CC(C)(C)NC2=O)nc1N)c1cccc(C(F)(F)F)c1 [Example 40]
D: CCN(C(=O)c1cnc(N2CC(C)NC2=O)nc1N)c1cccc(C(F)(F)F)c1 (stereo not shown) [Example 58, hydrochloride]
Task: Please rank these compounds by 1 part by mass dissolves in ... parts by H2O in descending order. Write out the labels following the order that was asked for.
Result: B, A, C, D
(B: 65.8 parts by H2 O, A: 24.7 parts by H2 O, C: 12.1 parts by H2 O, D: 6.8 parts by H2 O)
